Recorded BT474 pHER3 IC50, one value per entry.
target-or-test-system: human HER3 endogenously expressed on human cancer cells (SK-Br-3, BT-474, MCF7) (human, UniProt P21860 20-1342)
test-details: cell-based or functional assay
Report as a plain number; the unit pM is understood.

[
  {
    "binder": "MOR12605 (antibody, human IgG1, kappa, V domains shown, Tested as IgG) VH: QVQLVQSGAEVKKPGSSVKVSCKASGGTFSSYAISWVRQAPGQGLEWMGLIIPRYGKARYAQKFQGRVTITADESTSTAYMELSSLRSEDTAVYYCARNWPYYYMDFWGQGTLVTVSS VL: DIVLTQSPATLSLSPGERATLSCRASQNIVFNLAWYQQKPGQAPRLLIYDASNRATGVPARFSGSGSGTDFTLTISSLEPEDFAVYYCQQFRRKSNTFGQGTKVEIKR",
    "reading": 1490
  }
]

Lookup: // query BT474 pHER3 IC50 value for entry MOR13655 (antibody, human IgG1, lambda, V domains shown, Tested as IgG) VH: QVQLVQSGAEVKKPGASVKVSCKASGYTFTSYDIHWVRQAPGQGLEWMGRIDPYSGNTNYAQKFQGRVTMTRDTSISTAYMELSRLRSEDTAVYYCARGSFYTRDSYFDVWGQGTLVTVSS VL: DIALTQPASVSGSPGQSITISCTGTSSDVGTYNQVSWYQQHPGKAPKLMIYGVSKRPSGVSNRFSGSKSGNTASLTISGLQAEDEADYYCSSATQKPDVTVFGGGTKLTVLG
Found: 19

Lookup: Consider the binder shown here: MOR12615 (antibody, human IgG1, lambda, V domains shown, Tested as IgG) VH: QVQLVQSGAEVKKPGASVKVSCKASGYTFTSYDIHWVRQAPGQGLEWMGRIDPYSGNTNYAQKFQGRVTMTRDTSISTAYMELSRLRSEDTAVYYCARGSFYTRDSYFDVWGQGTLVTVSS VL: DIALTQPASVSGSPGQSITISCTGTSSDVGTYNQVSWYQQHPGKAPKLMIYGVSKRPSGVSNRFSGSKSGNTASLTISGLQAEDEADYYCSSRDLIGHYVFGGGTKLTVLG What is its recorded BT474 pHER3 IC50?
Found: 421
